Measured Kd, listed per entry.
Tested on: p38-alpha
Construct: gene MAPK14
Readout type: Kd (nM)

1. CN(C)CCN(C)C(=O)c1cc(-c2ccncc2)c(-c2ccc(Cl)c(O)c2)o1.Cl.Cl : 740
2. C[C@@H]1CCCCN1c1cc(-c2ccc3c(N)n[nH]c3c2)nc(N)n1 : 2100
3. COc1ccccc1CNC(=O)c1cc(C(=O)c2ccccc2C)c[nH]1 : 270

* * *

pKd: −log10 of the molar value.
As an illustration, consider measured pKd for compounds on TSSK1B.
Readout type: pKd

1) CS(=O)(=O)c1ccc(-c2nc3n(c2-c2ccncc2)CCC3)cc1 [SKF-105942] : < 5.00
2) CCCc1ccc(S(=O)(=O)NC2CCN(c3ccnc(Nc4ccc(F)cc4)n3)C2)cc1 (centres unmarked) [GSK1379715] : < 5.00

* * *

System: MEK3
Construct: gene MAP2K3
Settings: concentration: 1 μM, replicates: in singlicate; n = 1
Measured %Inh, listed per entry.
Readout type: %Inh (%)

1. O=C(Nc1ccccc1)Nc1cccc(Oc2ccc3nccn3n2)c1 : 0
2. Cc1cccc(-c2nc(Nc3ccc4[nH]ncc4c3)c3ccccc3n2)n1 : 19
3. Cc1ccc(C(=O)Nc2ccc(Nc3ccnc4cc(-c5ccccn5)ccc34)cc2O)cc1.Cl : 0
4. Cc1c(O)cccc1Nc1ccnc2ccc(C(F)(F)F)cc12.Cl : 0
5. COc1cc2nccc(Nc3ccc(NC(=O)c4ccc(C)cc4)c(O)c3)c2cc1OC.Cl : 0

* * *

Tested on: JAK1(JH1domain-catalytic)
Settings: concentration: 1 μM, replicates: in singlicate; n = 1
Measured %Inh, listed per entry.
Readout type: %Inh (%)

1) CS(=O)(=O)c1ccc(-c2nc3n(c2-c2ccncc2)CCC3)cc1 : 6
2) COC(=O)c1c(-c2ccccc2)c2cc(C(=O)O)ccc2c(=O)n1Cc1ccccc1 : 2
3) COc1cc2ncn(-c3cc(OCC4CCCO4)c(C(N)=O)s3)c2cc1OC (stereo not drawn) : 0
4) Cn1ccc2ncnc(Oc3cccc(C(=O)Nc4ccccc4)c3)c21 : 7
5) COc1ccccc1-c1ccc2c(NC(=O)C3CC3)n[nH]c2n1 : 25
6) Cc1cccc(-c2nc(Nc3cccc(C(N)=O)c3)c3ccccc3n2)n1 : 0
7) O=C(Nc1n[nH]c2nc(-c3nccs3)c(Br)cc12)C1CCCC1 : 16
8) CCCc1ccc(S(=O)(=O)NC2CCN(c3ccnc(Nc4ccc(F)cc4)n3)C2)cc1 (stereo not drawn) : 18
9) COc1cccc(NC(=O)NC2CCN(c3ccnc(Nc4ccc(F)cc4)n3)C2)c1 (stereo not drawn) : 7

* * *

Test system: PAK3
Details: concentration: 1 μM, replicates: in singlicate; n = 1
Measured %Inh, listed per entry.
Readout type: %Inh (%)

1) Cc1cccc(-c2nc(Nc3ccc4[nH]ncc4c3)c3ccccc3n2)n1 : 0
2) CN1C(=O)C(Nc2ccc(Cl)c(C(=O)O)c2)=C(c2ccc(Cl)cc2)C1=O : 22
3) Clc1cc(Cl)cc(Nc2ccnc(Nc3cc(Cl)cc(Cl)c3)n2)c1 : 0
4) CN(C)CCN(C)C(=O)c1cc(-c2ccncc2)c(-c2ccc(Cl)c(O)c2)o1.Cl.Cl : 16
5) COc1cccc(NC(=O)NC2CCN(c3ccnc(Nc4ccc(F)cc4)n3)C2)c1 (stereo not drawn) : 0
6) COC(=O)c1c(-c2ccccc2)c2cc(OC)ccc2c(=O)n1Cc1ccccc1 : 44
7) Cn1ccc2ncnc(Oc3ccc(Nc4nc5ccccc5[nH]4)cc3)c21 : 0
8) O=c1cc(N2CCOCC2)nc2n(Cc3cccc(Cl)c3Cl)ccn12 : 0
9) Cc1ccccc1-n1cnc2c(N)ncnc21 : 25

* * *

Tested on: NEK6
Conditions: concentration: 1 μM, replicates: in singlicate; n = 1
Measured %Inh, listed per entry.
Readout type: %Inh (%)

1) Cc1cccc(-c2nc(Nc3ccncc3)c3ccccc3n2)n1 : 21
2) COc1ccc(CNC(=O)NC2CCN(c3ccnc(Nc4cc(OC)c(OC)c(OC)c4)n3)C2)cc1 (centres unmarked) : 0
3) COc1cc2ncn(-c3cc(OCC4CCCO4)c(C(N)=O)s3)c2cc1OC (centres unmarked) : 0
4) Cc1cccc(-c2nc(C)cc(Nc3ccncc3)n2)n1 : 0
5) Cn1ccc2ncnc(Oc3ccc(Nc4nc5ccccc5[nH]4)cc3)c21 : 0

* * *

Measured %Inh, listed per entry.
Tested on: HUNK
Conditions: concentration: 1 μM, replicates: in singlicate; n = 1
Readout type: %Inh (%)

1) CN(C)CCN(C)C(=O)c1cc(-c2ccncc2)c(-c2ccc(Cl)c(O)c2)o1.Cl.Cl : 38
2) Fc1cccc(COc2nnc(-c3ccc4c(c3)CCO4)o2)c1 : 7
3) Cc1cccc(-c2nc(-c3ccc(S(C)(=O)=O)cc3)sc2-c2ccnc(NCCc3ccccc3)c2)c1 : 0
4) COc1cccc(-c2cc(-c3c[nH]nc3-c3ccccn3)ccn2)c1 : 71
5) Cc1cccc(-c2nc(C)cc(Nc3ccncc3)n2)n1 : 7
6) COC(=O)c1c(-c2ccccc2)c2cc(C(=O)O)ccc2c(=O)n1Cc1ccccc1 : 43
7) COc1cccc(NC(=O)NC2CCN(c3ccnc(Nc4ccc(F)cc4)n3)C2)c1 (stereo not shown) : 13
8) O=C(Nc1ccc2c(c1)OCO2)NC1CCN(c2ccnc(Nc3ccc(F)cc3)n2)C1 (stereo not shown) : 12
9) COC(=O)c1c(-c2ccccc2)c2cc(OC)ccc2c(=O)n1Cc1ccccc1 : 0
10) O=C(Nc1n[nH]c2cc(-c3cccc(F)c3F)ccc12)C1CC1 : 0
11) CS(=O)(=O)c1ccc(-c2c(-c3ncn[nH]3)sc(N3CCOCC3)c2C#N)cc1 : 0
12) CC(C)(C)c1ccc(C(=O)Nc2cn3cc(Cl)ccc3n2)cc1 : 43
13) Cc1cccc(-c2nc(Nc3cccc(C(N)=O)c3)c3ccccc3n2)n1 : 44
14) Cc1cccc(-c2cc(Nc3ccncc3)c3ccccc3n2)n1 : 0
15) Cc1nnc(-c2ccc3occ(-c4ccc(S(C)=O)cc4)c3c2)[nH]1 (stereo not shown) : 0
16) Cc1cccc(-c2nc(Nc3ccncc3)c3ccccc3n2)n1 : 0
17) Cc1c(Cn2ccn3c(=O)cc(N4CCOCC4)nc23)cccc1C(F)(F)F : 29
18) O=C(O)COc1ncnc2cc(-c3ccc4[nH]ncc4c3)sc12 : 18
19) CS(=O)(=O)c1ccc(-c2nc3n(c2-c2ccncc2)CCC3)cc1 : 27

* * *

Measured %Inh, listed per entry.
Tested on: PHKG2
Settings: concentration: 1 μM, replicates: in singlicate; n = 1
Readout type: %Inh (%)

1) O=c1cc(N2CCOCC2)nc2n(Cc3cccc(Cl)c3Cl)ccn12 [GSK2286295] : 19
2) Clc1cc(Cl)cc(Nc2ccnc(Nc3cc(Cl)cc(Cl)c3)n2)c1 [GSK175726] : 0
3) Cc1ccc(NC(=O)Nc2cc(C(C)(C)C)nn2-c2ccccc2)cc1 [GSK1014915] : 0
4) Cc1cccc(-c2nc(Nc3ccncc3)c3ccccc3n2)n1 [GW855857] : 3
5) Cl.NC(=O)c1cccc(Nc2nccc(Nc3ccc(Oc4cccc(Cl)c4)c(Cl)c3)n2)c1 [GW659008] : 0
6) Cc1cccc(-c2nc(Nc3cccc(C(N)=O)c3)c3ccccc3n2)n1 [GW876019] : 8
7) Cn1ccc2ncnc(Oc3cccc(C(=O)Nc4ccccc4)c3)c21 : 0
8) O=C(Nc1n[nH]c2nc(-c3nccs3)c(Br)cc12)C1CC1 [SB-742251] : 0
9) O=C(Nc1ccc2c(c1)OCO2)NC1CCN(c2ccnc(Nc3ccc(F)cc3)n2)C1 (stereo not shown) [GSK1379724] : 0
10) CCn1c(-c2ccccn2)nc2cnccc21 [SB-736398] : 0
11) Cn1ccc2ncnc(Oc3ccc(Nc4nc5ccccc5[nH]4)cc3)c21 : 25
12) Cc1nnc(-c2ccc3occ(-c4ccc(S(C)=O)cc4)c3c2)[nH]1 (stereo not shown) : 16
13) COc1cc2ncnc(Nc3ccc4nc(-c5ccccc5)[nH]c4c3)c2cc1OC.Cl [GW282450] : 6
14) CS(=O)(=O)c1ccc(-c2c(-c3ncn[nH]3)sc(N3CCOCC3)c2C#N)cc1 : 7
15) CN(C)CCN(C)C(=O)c1cc(-c2ccncc2)c(-c2ccc(Cl)c(O)c2)o1.Cl.Cl [SB-710397] : 0
16) Nc1ncnc2[nH]c(-c3ccccc3)nc12 [AH5015] : 0
17) Cl.O=C(Nc1cccc(-c2nn3ncccc3c2-c2ccnc(Nc3cccnc3)n2)c1)c1c(F)cccc1F [GSK312879] : 18
18) Cc1ccc(C(=O)Nc2ccc(Nc3ccnc4cc(-c5ccccn5)ccc34)cc2O)cc1.Cl [GW440146] : 0
19) Fc1cc(Cl)ccc1Nc1ccnc2cc(-c3ccc(CN4CCCCC4)o3)ccc12 [GW560116] : 0

* * *

System: CTK
Construct: gene MATK
Conditions: concentration: 1 μM, replicates: in singlicate; n = 1
Readout type: %Inh (%)

1) Fc1cccc(COc2nnc(-c3ccc4c(c3)CCO4)o2)c1 : 0
2) Cn1cncc1-c1ccc2ncnc(Nc3ccc(OCc4ccccc4)cc3)c2c1 : 0
3) COc1ccc(C2=C(Nc3cccc(C(=O)O)c3)C(=O)NC2=O)cc1 : 43
4) COc1cc2ncn(-c3cc(OCC4CCCO4)c(C(N)=O)s3)c2cc1OC (stereo not drawn) : 0
5) Nc1ncnc2[nH]c(-c3ccccc3)nc12 : 5
6) Cl.Oc1ccc(-c2nc(-c3ccccc3)[nH]c2-c2ccncc2)cc1 : 0
7) COc1ccc(CNC(=O)NC2CCN(c3ccnc(Nc4cc(OC)c(OC)c(OC)c4)n3)C2)cc1 (stereo not drawn) : 0
8) Cc1csc(-c2nc(Nc3ccncc3)c3ccccc3n2)n1 : 36
9) COc1cc(Nc2nccc(N3CCC(NC(=O)Nc4cc(C)ccc4C)C3)n2)cc(OC)c1OC (stereo not drawn) : 8
10) COc1cc2nccc(Nc3ccc(NC(=O)c4ccc(C)cc4)c(O)c3)c2cc1OC.Cl : 0
11) Cc1cc(NCC(c2ccccc2)c2ccccc2)nc(NCc2ccc(C(F)(F)F)cc2)n1 : 0
12) CC1=C(C(=O)Nc2cc3cn[nH]c3cc2F)C(c2ccc(C(F)(F)F)cc2)CC(=O)N1 (stereo not drawn) : 0
